Items are presented alongside their recorded EC50.
- target-desc: human GPR40 (Homo sapiens, UniProt O14842)
- Sequence (O14842 whole entry): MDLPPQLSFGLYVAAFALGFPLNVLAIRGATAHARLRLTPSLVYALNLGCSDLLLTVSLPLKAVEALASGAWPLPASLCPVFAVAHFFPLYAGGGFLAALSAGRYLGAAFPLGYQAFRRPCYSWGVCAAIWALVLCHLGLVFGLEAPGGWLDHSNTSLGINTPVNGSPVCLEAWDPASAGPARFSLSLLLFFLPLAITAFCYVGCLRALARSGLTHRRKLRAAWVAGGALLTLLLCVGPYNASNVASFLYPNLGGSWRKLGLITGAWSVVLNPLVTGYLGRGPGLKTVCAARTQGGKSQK
- test-details: Cell-based aequorin assay using human GPR40
- test-conditions: CHO cells stably transfected with GPR40 and Aequorin; 0.01% HSA; aequorin luminescence; read-out: Relative EC50

1) CC#C[C@@H](CC(=O)O)c1ccc(OCc2ccc3c(c2)C(C)(C)CCC3(C)C)cc1 [Example 19] : 1000 to 10000 nM
2) CC/C(C)=C/[C@@H](CC(=O)O)c1ccc(OCc2ccc3c(c2)C(C)(C)CCC3(C)C)cc1 [Example 78] : 100 to 1000 nM
3) CC1(C)CCC(C)(C)c2cc(COc3ccc([C@H](/C=C/Cc4ccccc4)CC(=O)O)cc3)ccc21 [Example 84] : 1000 to 10000 nM
4) CCC1(CC)CCC(C)(C)c2ccc(COc3ccc([C@H](CC(=O)O)c4ccon4)cc3)cc21 [Example 72] : 10 to 100 nM

Alright, here's another compound for you.
Please fill in: EC50 reported for CC#CC(CC(=O)O)c1ccc(OCc2ccc3c(c2)C[C@H](c2ccc(Cl)cc2)O3)cc1 (single isomer, unassigned) [Example 77] = 10 to 100 nM
